# credit: BindingDB's records for doi:10.1016/j.bioorg.2015.11.002

biological target: Acetylcholinesterase (Homo sapiens)
Sequence (P22303 whole entry): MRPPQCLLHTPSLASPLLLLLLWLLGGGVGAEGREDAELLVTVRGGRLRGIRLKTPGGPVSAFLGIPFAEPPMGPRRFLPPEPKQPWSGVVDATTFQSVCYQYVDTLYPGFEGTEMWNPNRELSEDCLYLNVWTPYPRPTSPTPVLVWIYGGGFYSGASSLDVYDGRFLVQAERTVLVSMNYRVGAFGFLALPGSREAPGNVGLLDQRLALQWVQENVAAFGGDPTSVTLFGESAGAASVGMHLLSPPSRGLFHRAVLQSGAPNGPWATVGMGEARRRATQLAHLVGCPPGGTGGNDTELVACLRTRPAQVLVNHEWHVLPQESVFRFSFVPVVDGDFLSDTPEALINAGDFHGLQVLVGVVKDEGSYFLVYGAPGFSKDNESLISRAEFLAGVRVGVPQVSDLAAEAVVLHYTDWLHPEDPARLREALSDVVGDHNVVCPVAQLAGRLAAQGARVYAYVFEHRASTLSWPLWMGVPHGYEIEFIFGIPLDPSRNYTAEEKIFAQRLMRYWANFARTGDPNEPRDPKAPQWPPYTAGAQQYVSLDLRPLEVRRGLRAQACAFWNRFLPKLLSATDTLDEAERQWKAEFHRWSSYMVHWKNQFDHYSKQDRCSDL

{"columns": ["smi", "assayed.system", "value.units", "IC50"],
 "data": [
  ["Cc1cc(-c2ccc(NS(=O)(=O)c3ccccc3)c(C)c2)ccc1NS(=O)(=O)c1ccccc1", "Acetylcholinesterase (Homo sapiens)", "µM", 123],
  ["O=S(=O)(Nc1ccc(-c2ccc(NS(=O)(=O)c3ccccc3)cc2)cc1)c1ccccc1", "Acetylcholinesterase (Homo sapiens)", "µM", 42.3],
  ["CCCCN(c1ccc(-c2ccc(N(CCCC)S(=O)(=O)c3ccccc3)c(C)c2)cc1C)S(=O)(=O)c1ccccc1", "Acetylcholinesterase (Homo sapiens)", "µM", 3.72],
  ["CC(C)N(c1ccc(-c2ccc(N(C(C)C)S(=O)(=O)c3ccccc3)cc2)cc1)S(=O)(=O)c1ccccc1", "Acetylcholinesterase (Homo sapiens)", "µM", 73.2],
  ["Cc1cc(-c2ccc(N(C(C)C)S(=O)(=O)c3ccccc3)c(C)c2)ccc1N(C(C)C)S(=O)(=O)c1ccccc1", "Acetylcholinesterase (Homo sapiens)", "µM", 101],
  ["CCCCCN(c1ccc(-c2ccc(N(CCCCC)S(=O)(=O)c3ccccc3)c(C)c2)cc1C)S(=O)(=O)c1ccccc1", "Acetylcholinesterase (Homo sapiens)", "µM", 51.2],
  ["CCCCN(c1ccc(-c2ccc(N(CCCC)S(=O)(=O)c3ccccc3)cc2)cc1)S(=O)(=O)c1ccccc1", "Acetylcholinesterase (Homo sapiens)", "µM", 8.41],
  ["Cc1cc(-c2ccc(N(Cc3ccccc3)S(=O)(=O)c3ccccc3)c(C)c2)ccc1N(Cc1ccccc1)S(=O)(=O)c1ccccc1", "Acetylcholinesterase (Homo sapiens)", "µM", 2.27]
]}
